Taken from paper PMC3583349.

# Measurement target: CpGSTD1 (Culex pipiens)
# Sequence (H9M8E3 1-211): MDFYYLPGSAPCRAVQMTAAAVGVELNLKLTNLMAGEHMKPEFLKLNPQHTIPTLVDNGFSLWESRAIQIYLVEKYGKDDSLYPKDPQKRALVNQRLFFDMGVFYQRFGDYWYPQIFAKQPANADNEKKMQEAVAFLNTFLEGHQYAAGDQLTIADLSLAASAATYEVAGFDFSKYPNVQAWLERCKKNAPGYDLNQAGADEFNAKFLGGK
# Settings: pH 6.5
Quantity kind: IC50 (µM)
Output spec: scalar in µM, unitless text.

For the compound shown here, CCCCCCSC[C@H](NC(=O)CC[C@H](N)C(=O)O)C(=O)NCC(=O)O , give the reported IC50.
68

###

Recorded pIC50 for the following compounds
# Measurement target: UniProt H9M8E4
# Sequence (H9M8E4 1-214): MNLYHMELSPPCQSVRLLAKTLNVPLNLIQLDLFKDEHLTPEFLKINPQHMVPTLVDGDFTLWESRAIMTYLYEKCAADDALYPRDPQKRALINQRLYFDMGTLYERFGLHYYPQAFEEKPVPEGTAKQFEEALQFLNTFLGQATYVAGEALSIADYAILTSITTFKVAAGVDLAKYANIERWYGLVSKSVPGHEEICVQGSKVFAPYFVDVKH
# Test summary: biochemical
The quantity pIC50 is defined as the negative base-10 logarithm of the molar concentration.

- O=C(/C=C/c1ccccc1)c1ccccc1 [chalcone]: 5.40
- C=C(CC)C(=O)c1ccc(OCC(=O)O)c(Cl)c1Cl [ethacrynic acid (EA), ethacrynic acid]: 5.60

Consider the additional compound presented here.
For the compound shown here, O=C(/C=C/c1ccc(O)cc1)c1ccccc1 [4-hydroxy chalcone, 4-hydroxychalcone] , give the reported pIC50.
5.30
